test: Quantitative High-Throughput drug screen in 47 multiple myeloma cell lines against the NCATS MIPE library collection: Karpas417_ECACC cell viability assay (AID 1918961); details: Karpas417 myeloma viability, CellTiter-Glo ATP luminescence, 48 h
Results filed as inconclusive are left out. Calls of active or inactive are those of the source. Calls follow the shape of the dose curve; as a rule, active = well fitted cell-killing curve with a large enough effect; inconclusive = small, poorly fitted or top-dose-only effect, or effect the other way; inactive = no such curve, though single readings can be large or run the other way.
Outcome field: choose from yes (1) (active), no (0) (inactive)

State the result this test recorded for C#CCC(Cc1cnc2nc(N)nc(N)c2n1)c1ccc(C(=O)N[C@@H](CCC(=O)O)C(=O)O)cc1 (stereo not given in full) .
no (0)

Same question for Cn1cc(CNCC2CCN(c3ncc(C(=O)NO)cn3)CC2)c2ccccc21 please.
yes (1)

Same question, O=C1NC(O)CCN1[C@@H]1O[C@H](CO)[C@H](O)[C@H]1O (stereo not given in full) this time
no (0)

Similarly, CCOC(=O)C=C[C@H](C[C@@H]1CCNC1=O)NC(=O)[C@@H](CC(=O)[C@@H](NC(=O)c1cc(C)on1)C(C)C)Cc1ccc(F)cc1 ?
no (0)

Also need C=CC(=O)N1CCc2ccc(-n3c(=O)ccc4cnc5ccc(-c6cnn(C)c6)cc5c43)cc21 , thanks.
yes (1)

====

assay: NS1 protein of Zika virus - qHTS assay to identify small molecule inhibitors in human HEK 293 cells (AID 1347053); conditions: HEK293 ZIKV MR766 infection, NS1 TR-FRET, 24 h; series mostly up to 46.1 µM; also: nearly all actives have a fitted effect of over 55% in size
Results filed as inconclusive are left out. Active and inactive are the calls of the source. The call rests on the fitted dose curve; in most records, active means well fitted inhibition curve with a large enough effect; inconclusive means small, poorly fitted or top-dose-only effect; inactive means no such curve, though single readings can be large or run the other way. Non-standard residues stand in square brackets, D forms with d. Residues, ends and D or L forms follow the SMILES beside them. *: point of attachment. Nva = CCC[C@H](N)C(=O)O; Cbz = O=C(OCc1ccccc1)*
Could you please pick one outcome from this set? 1 = active, -1 = inactive

Call for entry CC(=O)O[C@H]1C[C@@H]2CC[C@H]3[C@H]4C[C@H]([N+]5(C)CCCCC5)[C@@H](OC(C)=O)[C@@]4(C)CC[C@@H]3[C@@]2(C)C[C@H]1[N+]1(C)CCCCC1 :
-1

And Cn1cnc(=N)c2[nH]cnc21 ?
-1

Continue with Cn1cc(-c2ccc3ncc(Cc4ccc5ncccc5c4)n3n2)cn1
-1

Then what about the molecule NC(=O)c1ncn([C@@H]2O[C@H](CO)[C@@H](O)[C@@H]2O)c1N ?
-1

What do you get for CCC[C@@H](C=O)NC(=O)[C@H](CC(C)C)NC(=O)[C@H](CC(C)C)NC(=O)OCc1ccccc1 (Cbz-Leu-Leu-[Nva]-aldehyde) ?
1

====

assay: qHTS of pediatric cancer cell lines to identify multiple opportunities for drug repurposing: Confirmatory screen for NB-EBc1 cells (AID 1347115); conditions: NB-EBc1 neuroblastoma cells, viability (cytotoxicity); series mostly up to 45.9 µM;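 also: cells exposed to compound for 48 h before the viability read; nearly all actives have a fitted effect of over 45% in size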; also: potency is read from the fitted curve at half-maximal effect
Inconclusive results are not listed. The source made the active and inactive calls. Calls come from the whole dose curve; as a rule, active = well fitted cell-killing curve with a large enough effect; inconclusive = small, poorly fitted or top-dose-only effect, or effect the other way; inactive = no such curve, though single readings can be large or run the other way.
value.type: Potency

Guide cases for Potency, answers given:
>>> value_reported("Nc1nc2c(c(=O)[nH]1)N(C=O)[C@H](CNc1ccc(C(=O)N[C@@H](CCC(=O)O)C(=O)O)cc1)CN2")
"inactive"
>>> value_reported("CCc1cc(C(C)=NOCc2ccc(C3CCCCC3)c(C(F)(F)F)c2)ccc1CN1CC(C(=O)O)C1")
"inactive"
>>> value_reported("CC(=O)[C@]1(O)Cc2c(O)c3c(c(O)c2[C@@H](O[C@H]2C[C@H](N)[C@@H](O)[C@H](C)O2)C1)C(=O)c1ccccc1C3=O")
"0.465 µM (active)"
>>> value_reported("O=C(Nc1cc2cc[nH]c2cn1)c1ccccc1")
"16.5 µM (active)"
>>> value_reported("O=C(C=CC=Cc1ccc2c(c1)OCO2)N1CCCCC1")
"inactive"

Fill in the blank: the reported Potency of CCS(=O)(=O)Nc1ccc2[nH]c(O)c(C(=Nc3ccc(CN4CCCCC4)cc3)c3ccccc3)c2c1 is ____.
4.65 µM (active)

Try this compound too: CCOC(=O)C1=C(C)NC(=S)NC1c1cccc(O)c1 (centres undefined)
inactive

Cc1ccc([N+](=O)[O-])cc1S(=O)(=O)N(C)N=Cc1cnc2ccc(Br)cn12 ?
0.293 µM (active)

Now give it for COC1=C2C[C@@H](C)C[C@H](OC)[C@@H](O)[C@@H](C)C=C(C)[C@H](OC(N)=O)[C@@H](OC)C=CC=C(C)C(=O)NC(=CC1=O)C2=O too.
9.27 µM (active)

====

assay: qHTS of pediatric cancer cell lines to identify multiple opportunities for drug repurposing: Confirmatory screen for MG 63 (6-TG R) cells (AID 1347119); settings: MG-63 (6-TG resistant) osteosarcoma viability; series mostly up to 45.9 µM; also: potency is read from the fitted curve at half-maximal effect; nearly all actives have a fitted effect of over 55% in size
Inconclusive results are not listed. Calls of active or inactive are those of the source. Calls come from the whole dose curve; as a rule, active = well fitted cell-killing curve with a large enough effect; inconclusive = small, poorly fitted or top-dose-only effect, or effect the other way; inactive = no such curve, though single readings can be large or run the other way.
Would you mind telling me the reported Potency of each entry?

Item under review: O=C1NC(=O)[C@@H](c2cn3c4c(cccc24)CCC3)[C@H]1c1c[nH]c2ccccc12 . Reported Potency?
1.17 µM (active)

Let us now turn to Cc1cnc(Nc2ccc(CN3CCOCC3)cc2)nc1Nc1cccc(S(=O)(=O)NC(C)(C)C)c1
4.14 µM (active)

Please give the result for CC(N[C@H]1CCCC[C@H]1NC(=O)c1ccc(Cl)cc1)c1cccc2ccccc12 (stereo not given in full) too.
23.3 µM (active)

Can you check FC(F)c1nc2ccccc2n1-c1nc(N2CCOCC2)nc(N2CCOCC2)n1 next?
0.928 µM (active)

// query: COc1cc(O)c2c(c1)C1OC1C[C@H](O)[C@H](O)C(=O)C=CC[C@H](C)OC2=O (stereo not given in full)
5.85 µM (active)

====

assay: Quantitative High-Throughput drug screen in 47 multiple myeloma cell lines against the NCATS MIPE library collection: XG6_PLB cell viability assay (AID 1919865); details: XG6 myeloma viability, CellTiter-Glo ATP luminescence, 48 h; series mostly up to 45.8 µM; also: nearly all actives have a fitted effect of over 40% in size; also: potency is read from the fitted curve at half-maximal effect
Results filed as inconclusive are left out. Calls of active or inactive are those of the source. Calls follow the shape of the dose curve; as a rule, active = well fitted cell-killing curve with a large enough effect; inconclusive = small, poorly fitted or top-dose-only effect, or effect the other way; inactive = no such curve, though single readings can be large or run the other way. Residues, ends and D or L forms follow the SMILES beside them. *: point of attachment. Cbz = O=C(OCc1ccccc1)*
value.type: Potency

Some compounds with recorded Potency:
>>> value_reported("O=C(CCCCCCC(=O)Nc1cccnc1)NO")
"11.8 µM (active)"
>>> value_reported("Cc1nc(NC(=O)N2CCC[C@@H]2C(N)=O)sc1-c1ccnc(C(C)(C)C(F)(F)F)c1")
"1.87 µM (active)"
>>> value_reported("CCc1nc(-c2cccc(C)c2)c(-c2ccnc(NC(=O)c3ccccc3)c2)s1")
"20.9 µM (active)"
>>> value_reported("NC(=O)c1cccc(-c2cccc(OC(=O)NC3CCCCC3)c2)c1")
"inactive"
>>> value_reported("CCOC(=O)[C@H](CCc1ccccc1)N[C@@H](C)C(=O)N1[C@@H](C(=O)O)C[C@H]2CCC[C@@H]21")
"7.43 µM (active)"
>>> value_reported("CC(C)[C@H](CO)Nc1nc(Nc2cccc(Cl)c2)c2ncn(C(C)C)c2n1")
"5.26 µM (active)"

Entry CC(C)C[C@@H](C=O)NC(=O)[C@H](CC(C)C)NC(=O)[C@H](CC(C)C)NC(=O)OCc1ccccc1 (Cbz-Leu-Leu-Leu-aldehyde) : reported Potency = ?
0.105 µM (active)

Okay, and CNC(=O)c1ccc(Nc2cc(Nc3ccccc3S(=O)(=O)C(C)C)c3cc[nH]c3n2)nc1 ?
0.662 µM (active)

Try this compound next: OC[C@@H](O)[C@@H](O)[C@H](O)[C@@H](O)CO
inactive

====

assay: qHTS of pediatric cancer cell lines to identify multiple opportunities for drug repurposing: Confirmatory screen for BT-12 cells (AID 1347112); conditions: BT-12 rhabdoid tumor cells, viability; series mostly up to 45.9 µM;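 also: viability read after 48 h of compound exposure; nearly all actives have a fitted effect of over 55% in size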
Inconclusive results are not listed. The source made the active and inactive calls. Calls follow the shape of the dose curve; as a rule, active = well fitted cell-killing curve with a large enough effect; inconclusive = small, poorly fitted or top-dose-only effect; inactive = flat fitted curve, though single readings scatter.
Form entry, call: pick from t = active, f = inactive

Record request — test call for CCOC(=O)C1=C(C)NC(=S)NC1c1cccc(O)c1 (centres undefined)
f

Then what about the compound O=C(NCc1ccccc1)[C@H](Cc1ccccc1)NC(=O)[C@@H]1O[C@@H]1C(=O)NCCc1ccc(O)cc1 ?
f

Ok, now COC(=O)C1C2CC3c4[nH]c5cc(OC)ccc5c4CCN3CC2CC(OC(=O)c2cc(OC)c(OC)c(OC)c2)C1OC (centres undefined)
t

Please answer likewise for CC[C@]12C=CCN3CC[C@@]4(c5cc([C@@]6(C(=O)OC)C[C@H]7C[C@@H](C(C)(F)F)CN(Cc8c6[nH]c6ccccc86)C7)c(OC)cc5N(C)[C@H]4[C@@](O)(C(=O)OC)[C@H]1OC(C)=O)[C@@H]32
f

====

assay: Quantitative High-Throughput drug screen in 47 multiple myeloma cell lines against the NCATS MIPE library collection: Karpas25_ECACC cell viability assay (AID 1918968; also: nearly all actives have a fitted effect of over 35% in size; also: potency is read from the fitted curve at half-maximal effect); settings: Karpas25 myeloma viability, CellTiter-Glo ATP, 48 h; series mostly up to 45.8 µM
Records with an inconclusive call do not appear. Activity calls are given as the source filed them. Calls come from the whole dose curve; as a rule, active = well fitted cell-killing curve with a large enough effect; inconclusive = small, poorly fitted or top-dose-only effect, or effect the other way; inactive = no such curve, though single readings can be large or run the other way. Residues, ends and D or L forms follow the SMILES beside them. *: point of attachment. Cbz = O=C(OCc1ccccc1)*
value.type: Potency

Example results:
>>> value_reported("CC(C)C[C@@H](C=O)NC(=O)[C@H](CC(C)C)NC(=O)[C@H](CC(C)C)NC(=O)OCc1ccccc1 (Cbz-Leu-Leu-Leu-aldehyde)")
"235 nM (active)"
>>> value_reported("NC1=N[C@H]2[C@H](CS[C@H]2CCCCC(=O)O)N1")
"inactive"
>>> value_reported("C[C@@H]1[C@H](C)CC[C@]2(C(=O)O)CC[C@]3(C)C(=CC[C@@H]4[C@@]5(C)C[C@@H](O)[C@H](O)[C@@](C)(CO)[C@H]5CC[C@]43C)[C@@H]12")
"inactive"
>>> value_reported("Cn1cc(C[C@@H](N)C(=O)O)c2ccccc21")
"inactive"
>>> value_reported("C[C@H](NCc1ccc2c(c1)nc(NC(=O)c1ccc(-c3cn[nH]c3)s1)n2CCc1ccccc1)C(C)(C)C")
"1480 nM (active)"
>>> value_reported("CCN1CCN(C(=O)N[C@H](C(=O)N[C@@H]2C(=O)N3C(C(=O)O)=C(CSc4nnnn4C)CS[C@@H]23)c2ccc(O)cc2)C(=O)C1=O")
"inactive"
>>> value_reported("COc1cc([C@@H]2c3cc4c(cc3[C@H](O)[C@H]3COC(=O)[C@@H]23)OCO4)cc(OC)c1OC")
"187 nM (active)"

Please examine the following record next.
Fill in the blank: the reported Potency of CN1CCCN(C(=O)c2cccc(-c3ccc(C=C4C(=O)Nc5ccc(Cl)cc54)o3)c2)CC1 is ____.
8330 nM (active)
